# experiment.summary: NCI Yeast Anticancer Drug Screen. Data for the mec2-1 strain (AID 157)
# run.parameters: S. cerevisiae mec2-1 strain, at 50.0 µM
About 79,000 compounds went through this panel and 15% of them were active in at least one assay; those are over-represented in the sample as a whole. Activity calls are given as the source filed them. No stated cut-off is given here; in the data, active means growth inhibition above about 70%; inactive means the rest.
Possible outcomes: active, inactive

- molecule.smiles: "O=[N+]([O-])c1nccn1CCCNCCCn1ccnc1[N+](=O)[O-]"
  group.label: "inactive"
- molecule.smiles: "O=C(O)/C(=C\\c1ccc(O)cc1)c1cccc2ccccc12"
  group.label: "inactive"
- molecule.smiles: "CC[C@H]1CN2CCc3cc(OC)c(OC)cc3[C@@H]2C[C@@H]1C[C@H]1NCCc2cc(OC)c(OC)cc21"
  group.label: "inactive"
- molecule.smiles: "Oc1cccc(/C=C/c2ccncc2)c1"
  group.label: "inactive"
- molecule.smiles: "O=C(N/C(=C\\c1ccc(Oc2ccc(Cl)c(Cl)c2)cc1)c1nc2ccccc2[nH]1)c1ccccc1"
  group.label: "active"

====

Attribute: growth inhibition
# experiment.summary: NCI Yeast Anticancer Drug Screen. Data for the bub3 strain (AID 167)
# run.parameters: S. cerevisiae bub3 mutant strain, at 5.0 µM (retest, dose inferred, filed as 0.5), hits give high values
# Experimental: Growth inhibition of yeast strains with defined genetic alterations is measured as a screen for potential anti-cancer activity. Selected strains with alterations in DNA damage repair or cell cycle control were exposed to compounds and growth inhibition was measured relative to vehicle treated controls. The strain used in this assay is bub3
Compounds without any hit were thinned out: in the full panel of roughly 79,000, 15% have a hit. Activity calls are given as the source filed them. Cut-off read from the data, not from the text of the source: active = growth inhibition above about 70%; inactive = the rest.
attribute.measured: growth inhibition

- molecule.smiles: "Clc1cccc2c(-c3ccccc3)c3cccc(Cl)c3cc12"
  result: "-2% (inactive)"
- molecule.smiles: "O=C(OCCC1CCCCC1)c1cc([N+](=O)[O-])cc([N+](=O)[O-])c1"
  result: "5% (inactive)"
- molecule.smiles: "O=C1C=CC(=C(c2ccccc2)c2ccc(O)cc2)C=C1"
  result: "-8% (inactive)"
- molecule.smiles: "[Pt].c1ccc([PH+](CC[PH+](CC[PH+](c2ccccc2)c2ccccc2)CC[PH+](c2ccccc2)c2ccccc2)c2ccccc2)cc1"
  result: "93% (active)"
- molecule.smiles: "N=C1C=CC(=C(c2ccc(N)cc2)c2ccc(N)cc2)C=C1"
  result: "12% (inactive)"
- molecule.smiles: "O=C(O)/C=C/c1ccc2c(c1)CCCC2"
  result: "-11% (inactive)"

====

Attribute: growth inhibition
# experiment.summary: NCI Yeast Anticancer Drug Screen. Data for the cln2 rad14 strain (AID 165);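 further: 0% = growth equal to vehicle treated cultures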
# run.parameters: S. cerevisiae cln2 rad14 strain, at 50.0 µM, hits give high values
The panel holds about 79,000 compounds, 15% with a hit somewhere; the sample as a whole holds those more often.

- molecule: "CCC1([N+](=O)[O-])COC(c2ccc3c(c2)OCO3)OC1 (stereo unspecified)"
  unit.abbreviation: "%"
  growth inhibition: -1.9
- molecule: "O=C(/C=C\\c1ccc(Cl)c(Cl)c1)c1cccs1"
  unit.abbreviation: "%"
  growth inhibition: 51.6
- molecule: "c1ccc(N2CCN(c3ccccc3)C2Cc2c[nH]c3ccccc23)cc1"
  unit.abbreviation: "%"
  growth inhibition: 92.5
- molecule: "CC[N](CC)[Ge]([CH2]C)[CH2]C.CC[N](CC)[Ge]([CH2]C)[CH2]C"
  unit.abbreviation: "%"
  growth inhibition: 37.1
- molecule: "Nc1ccc2c(c1)S(=O)(=O)c1cc(N)ccc1-2"
  unit.abbreviation: "%"
  growth inhibition: 5.8
- molecule: "O=C1NC(c2ccccc2)(c2ccccc2)C(=O)N1SC(Cl)(Cl)Cl"
  unit.abbreviation: "%"
  growth inhibition: 89.7

====

# experiment.summary: NCI Yeast Anticancer Drug Screen. Data for the mec2-1 strain (AID 157)
# run.parameters: S. cerevisiae mec2-1 strain, at 50.0 µM
This is part of a sample that, as a whole, favours compounds with a hit. Of some 79,000 tested, about 15% had one in any assay. The source made the active and inactive calls. Cut-off read from the data, not from the text of the source: active = growth inhibition above about 70%; inactive = the rest.
Possible outcomes: TRUE for active, FALSE for inactive

- compound: "CCCN(Cc1ccccc1)S(=O)(=O)c1ccc(C)cc1"
  group.label: "FALSE"
- compound: "Cc1nc2ccc3c(ccc4nc(C)c(N=Nc5ccc(C(=N)N)cc5)c(O)c43)c2c(O)c1N=Nc1ccc(C(=N)N)cc1"
  group.label: "TRUE"
- compound: "Cc1ccc([N+](=O)[O-])c2c(NCCCN(C)C)c3ccccc3nc12"
  group.label: "TRUE"
- compound: "O=C1c2ccc3c4ccccc4n(Cc4ccccc4)c3c2C(=O)N1c1ccccc1"
  group.label: "TRUE"
- compound: "CCCCC(=O)OC1=C(Br)C(=O)c2ccccc2C1=O"
  group.label: "FALSE"
- compound: "O=C(N/N=C/c1cc(Cl)cc(Cl)c1O)c1ccccc1"
  group.label: "FALSE"
- compound: "C=C1CC/C=C(/C(=O)O)CC[C@H]2[C@@H]1CC2(C)C"
  group.label: "FALSE"
- compound: "S=C(NCc1ccccc1)[S][Sb]([S]C(=S)NCc1ccccc1)[c]1ccccc1"
  group.label: "TRUE"
- compound: "CCOC(=O)N1CCN(CCCCCCOc2c(Cl)cc(Cl)cc2Cl)CC1"
  group.label: "TRUE"
- compound: "CCC1CCC2C3CC=C4CC(OC(C)=O)C(N)CC4(C)C3CCC12C (configuration not stated)"
  group.label: "TRUE"
- compound: "COc1ccc(CNC(C#N)c2ccccc2)cc1OC (configuration not stated)"
  group.label: "TRUE"
- compound: "CC(C)COC(=O)c1ccc(N=Cc2ccc(C=Nc3ccc(C(=O)OCC(C)C)cc3)cc2)cc1"
  group.label: "FALSE"
- compound: "C[C@H](CCC1=NCCN1)[C@H]1CC[C@H]2[C@@H]3[C@H](O)C[C@@H]4C[C@H](O)CC[C@]4(C)[C@H]3CC[C@]12C"
  group.label: "TRUE"
- compound: "O=[N+]([O-])/C(Cl)=C(\\Sc1ccccc1)C(Cl)=C(Cl)Cl"
  group.label: "TRUE"
- compound: "CCC(C)C(C(=O)NOC(=O)c1ccccc1)/C(N)=N/OC(=O)c1ccccc1 (configuration not stated)"
  group.label: "TRUE"
- compound: "COC(=O)c1ccc(CCC2=CC(=O)C=CC2=O)cc1"
  group.label: "TRUE"
- compound: "Cc1nc2ccc(N=Nc3c(O)ccc4ccccc34)cc2[nH]1"
  group.label: "TRUE"
- compound: "Cc1occc1C(=S)Nc1ccc(Cl)c(C(=O)OCC(F)(F)F)c1"
  group.label: "TRUE"
- compound: "O=C1OC(c2ccccc2)(c2ccc(-c3ccc(O)cc3)cc2)c2ccccc21 (configuration not stated)"
  group.label: "TRUE"
- compound: "COc1ccc(NC(=O)C(Cc2ccccc2)NC(C)=O)cc1 (configuration not stated)"
  group.label: "FALSE"
- compound: "CN1C=COC1N=C1CCCCC1 (configuration not stated)"
  group.label: "FALSE"
- compound: "Oc1ccc(-c2nnc(-c3ccccc3)nn2)cc1"
  group.label: "FALSE"

====

# experiment.summary: NCI Yeast Anticancer Drug Screen. Data for the bub3 strain (AID 167)
# run.parameters: S. cerevisiae bub3 mutant strain, at 50.0 µM, hits give high values
Compounds without any hit were thinned out: in the full panel of roughly 79,000, 15% have a hit.
attribute.measured: growth inhibition (%)

- compound: "Cc1cc2nc(-c3ccccc3[N+](=O)[O-])[nH]c2cc1C"
  unit.abbreviation: "%"
  measured.number: 16.3
- compound: "Cc1ccc(C(=O)C(CCC#N)(CCC#N)CCC#N)cc1"
  unit.abbreviation: "%"
  measured.number: 1.1
- compound: "CCCCCCCCCCCCS(=O)(=O)CC(Br)C(=O)c1ccco1 (stereo unspecified)"
  unit.abbreviation: "%"
  measured.number: 95.1
- compound: "CCC(=O)OC1=C(Br)C(=O)c2ccccc2C1=O"
  unit.abbreviation: "%"
  measured.number: 18.9
- compound: "Clc1ccc(OCC(Cn2ccnc2)c2ccc(Cl)cc2)cc1 (stereo unspecified)"
  unit.abbreviation: "%"
  measured.number: 99.8
- compound: "CC/C(=C1\\C=CC(=O)S1)C(CC)c1ccc(OC(C)=O)cc1 (stereo unspecified)"
  unit.abbreviation: "%"
  measured.number: 93.9
- compound: "CCOc1ccc2c(c1)CCC1C2CCC2(C)CC(O)CC12 (stereo unspecified)"
  unit.abbreviation: "%"
  measured.number: 98.1
- compound: "Nc1ccc(C(=O)N/N=C\\c2cccc3ccccc23)cc1"
  unit.abbreviation: "%"
  measured.number: 50.8
- compound: "CC(=O)Oc1ccc2ccccc2c1CN(Cc1c(OC(C)=O)ccc2ccccc12)C(C)=O"
  unit.abbreviation: "%"
  measured.number: 93.8
- compound: "CN(C)CC1CCC2=C(C1=O)C(c1ccc(Cl)c(Cl)c1)C1=C(CCC(CN(C)C)C1=O)O2 (stereo unspecified)"
  unit.abbreviation: "%"
  measured.number: 3.75
- compound: "CCCCOC(=O)c1ccc(S(=O)(=O)c2ccc(C(=O)OCCCC)cc2)cc1"
  unit.abbreviation: "%"
  measured.number: 77.7
